| COMPOUND | melting point |
| --- | --- |
| CCOC(=O)C1=C(C)N=c2s/c(=C\c3cccc(OC)c3O)c(=O)n2C1c1cccc([N+](=O)[O-])c1 (stereo not drawn) | 206 to 208 °C |
| COc1cccc(/C=c2\sc3n(c2=O)C(c2ccc(C)cc2)C(C(C)=O)=C(C)N=3)c1O (stereo not drawn) | 209 to 211 °C |
| CCOC(=O)C1=C(C)N=c2s/c(=C\c3cccc(OC)c3O)c(=O)n2C1c1ccccc1OC (stereo not drawn) | 193 to 195 °C |
| CCOC(=O)C1=C(C)N=c2s/c(=C\c3cccc(OC)c3O)c(=O)n2C1c1ccc(Br)cc1 (stereo not drawn) | 234 to 236 °C |
| CCOC(=O)C1=C(C)N=c2s/c(=C\c3cccc(OC)c3O)c(=O)n2C1c1ccccc1 (stereo not drawn) | 231 to 233 °C |
| CCOC(=O)C1=C(C)N=c2s/c(=C\c3cccc(OC)c3O)c(=O)n2C1c1cccc(Br)c1 (stereo not drawn) | 190 to 192 °C |
